Values compiled from PubChem BioAssay AID504383.

target: Troponin I, cardiac muscle (Homo sapiens) + Troponin T, cardiac muscle (Homo sapiens) + Troponin C, slow skeletal and cardiac muscles (Homo sapiens) (UniProt P19429+P45379+P63316); test: cardiac RTF calcium sensitivity activators, confirmation, biochemical, IANBD-TnC fluorescence, triplicate (AID 504383); settings: IANBD-labeled cardiac RTF, Ca2+ sensitivity fluorescence, at 7.2 µM, hits give high values, tested at EC20 calcium, 0.472 mM;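 further: 0% = DMSO at 0.472 mM calcium and 100% = DMSO at 2.9 mM calcium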
Screen size: about 2,500 compounds; about 1,200 (48%) were called active. So high a share suggests a set chosen from earlier hits. This is one part of the list.
# reported activation; entries follow
experimental-readout: activation (%)

- molecule: "CCCc1cc(=O)oc2cc(OCC(=O)N3C[C@H]4C[C@@H](C3)c3cccc(=O)n3C4)ccc12"
  experimental-readout: "activation"
  unit-of-measurement: "%"
  result: 113
- molecule: "Cc1cc(N(CCCl)CCCl)ccc1C=Cc1ccncn1"
  experimental-readout: "activation"
  unit-of-measurement: "%"
  result: 17.4
- molecule: "CN1C(=O)/C(=C\\c2ccc(N3CCCCC3)o2)C(=O)NC1=S"
  experimental-readout: "activation"
  unit-of-measurement: "%"
  result: 8.33
- molecule: "CCOCCCn1c(N)c(C(=O)Nc2sc3c(c2C(=O)OC)CCCC3)c2nc3ccccc3nc21"
  experimental-readout: "activation"
  unit-of-measurement: "%"
  result: 12.7
- molecule: "CCCc1cc(=O)oc2cc(OCC(=O)N3CCC(C(=O)O)(c4ccccc4)CC3)ccc12"
  experimental-readout: "activation"
  unit-of-measurement: "%"
  result: 10.7
- molecule: "CN1C(=O)/C(=C/c2ccc(N3CCCCCC3)o2)C(=O)NC1=S"
  experimental-readout: "activation"
  unit-of-measurement: "%"
  result: 39
- molecule: "O=C1NC(=O)N(c2ccc3c(c2)OCO3)C(=O)/C1=C/c1ccc(N2CCCC2)o1"
  experimental-readout: "activation"
  unit-of-measurement: "%"
  result: 3.64
- molecule: "COc1ccc2c3c([nH]c2c1)C(C)=NCC3"
  experimental-readout: "activation"
  unit-of-measurement: "%"
  result: 9.9
- molecule: "O=C1NC(=O)N(Cc2ccccc2)C(=O)/C1=C\\N1CCCc2ccccc21"
  experimental-readout: "activation"
  unit-of-measurement: "%"
  result: 3.9
- molecule: "OC12CCCCC1C(c1ccccc1)NCC2 (stereo not given)"
  experimental-readout: "activation"
  unit-of-measurement: "%"
  result: 7.25

###

target: Troponin I, cardiac muscle (Homo sapiens) + Troponin T, cardiac muscle (Homo sapiens) + Troponin C, slow skeletal and cardiac muscles (Homo sapiens) (UniProt P19429+P45379+P63316); assay: cardiac RTF calcium sensitivity activators, confirmation, biochemical, IANBD-TnC fluorescence, triplicate (AID 504383); settings: IANBD-labeled cardiac RTF, Ca2+ sensitivity fluorescence, at 7.2 µM, hits give high values, tested at EC20 calcium, 0.472 mM;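 further: 0% = DMSO at 0.472 mM calcium and 100% = DMSO at 2.9 mM calcium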
In all, about 2,500 compounds went through this assay and about 1,200 (48%) were called active. The set was probably picked from earlier hits. This is one part of the list.
# binarize activation: threshold 50% inclusive, high side Yes, low side No

- smiles-structure: "CCN1C(=O)C(=Cc2ccc(N3CCOCC3)o2)C(=O)N(CC)C1=S"
  class-name: "No"
- smiles-structure: "O=C1NC(=O)N(c2ccc3c(c2)OCO3)C(=O)/C1=C\\c1ccc(N2CCCCC2)o1"
  class-name: "No"
- smiles-structure: "CN1C(=O)C(=Cc2sc(=O)n(-c3ccccc3)c2N2CCCCC2)C(=O)N(C)C1=O"
  class-name: "No"
- smiles-structure: "COc1ccc(N2C(=O)/C(=C/c3ccc(N(C)C)o3)C(=O)NC2=S)cc1"
  class-name: "Yes"
- smiles-structure: "CN1C(=O)C(=Cc2ccc(N3CCOCC3)o2)C(=O)N(C)C1=S"
  class-name: "No"
- smiles-structure: "CCN(CC)c1ccc(/C=C2\\C(=O)NC(=S)N(C)C2=O)o1"
  class-name: "No"
- smiles-structure: "C=CCN1C(=O)/C(=C\\c2ccc(N3CCOCC3)o2)C(=O)NC1=S"
  class-name: "No"
- smiles-structure: "CN1C(=O)C(=Cc2ccc(N3CCCCCC3)o2)C(=O)N(C)C1=S"
  class-name: "Yes"
